assay: NCI Yeast Anticancer Drug Screen. Data for the rad50 strain (AID 155);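 further: 0% = growth of vehicle-only cultures of the same strain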; conditions: S. cerevisiae rad50 strain growth inhibition; at 5.0 µM (retest, dose inferred, filed as 0.5); active compounds read high
The panel holds about 79,000 compounds, 15% with a hit somewhere; the sample as a whole holds those more often. The source made the active and inactive calls. No stated cut-off is given here; in the data, active means growth inhibition above about 70%; inactive means the rest.
Task for the reader: assign each of the following compounds its reported growth inhibition.

{"columns": ["Compound", "Result"],
 "data": [
  ["Cc1c2ccncc2cc2c3ccccc3n(C)c12", "-23% (inactive)"],
  ["CC1CN(CC(O)c2ccc(Br)cc2)CC(C)O1 (stereo not given)", "13% (inactive)"],
  ["S=C(NCCNC(=S)[S][Sn]([c]1ccccc1)([c]1ccccc1)[c]1ccccc1)[S][Sn]([c]1ccccc1)([c]1ccccc1)[c]1ccccc1", "97% (active)"],
  ["C1CSCCCSCCCSCCCSCCCSC1", "17% (inactive)"],
  ["O=C1Oc2ccccc2C1c1ccccc1 (stereo not given)", "16% (inactive)"]
]}

Go through the list and state growth inhibition for each entry.
1. CC(CN(CC(=O)O)CC(=O)O)N(CC(=O)O)CC(=O)O.[Cl][Pd][Cl] (stereo not given)
2. CCC(c1ccc(O)c(C2CCCCC2)c1)C(CC)c1ccc(OC(=O)c2ccccc2)c(C2CCCCC2)c1 (stereo not given)
3. COc1ccc(NC(=O)CCC(NS(=O)(=O)c2ccc(C)cc2)C(=O)O)cc1 (stereo not given)
4. CCCN(CCC)CC(O)c1cc(-c2ccccc2)nc2c(Cl)cc(Cl)cc12 (stereo not given)
5. Cc1ccc(C)c(NC(=O)CC2SC(=Nc3ccccc3Cl)NC2=O)c1 (stereo not given)

1. 27% (inactive)
2. 0% (inactive)
3. -6% (inactive)
4. 3% (inactive)
5. 23% (inactive)

* * *

Provide the reported growth inhibition of each item.
Experiment: NCI Yeast Anticancer Drug Screen. Data for the sgs1 mgt1 strain (AID 161);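 further: 0% = growth of cultures given vehicle only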
Settings: S. cerevisiae sgs1 mgt1 strain, at 5.0 µM (retest, dose inferred, filed as 0.5), active compounds read high
Description: Growth inhibition of yeast strains with defined genetic alterations is measured as a screen for potential anti-cancer activity. Selected strains with alterations in DNA damage repair or cell cycle control were exposed to compounds and growth inhibition was measured relative to vehicle treated controls. The strain used in this assay is sgs1 mgt1
Compounds without any hit were thinned out: in the full panel of roughly 79,000, 15% have a hit.
Answers are plain numbers, in %.

// solved cases for growth inhibition follow
{"columns": ["Molecule", "growth inhibition, %"],
 "data": [
  ["CCOC(=S)SCc1nc2ccccc2[nH]1", 7],
  ["O=C1NOCC1N=Cc1cc(Cl)ccc1O (configuration not stated)", -7],
  ["O=C([O-])c1ccc([I+]c2ccccc2)cc1", 18]
]}

Hey, can you go through the list below and give me growth inhibition for every item?
1. CCOc1ccc2c(c1)nc1ccccc1[n+]2CC
2. Cc1cccc2c1C1OC(=O)C3CCC=C2C31 (configuration not stated)
3. CCCCOP(=O)(OCCCC)C(NS(=O)(=O)c1ccccc1)(C(=O)OCC)C(F)(F)F (configuration not stated)
4. COc1cc2c(c(OC)c1OC)-c1ccc(SC)c(=O)cc1[C@@H](NC1OC(COC(C)=O)C(OC(C)=O)C(OC(C)=O)C1OC(C)=O)CC2 (some centres not stated)
5. Cc1ccnc2c1ccc1c(C)ccnc12
6. CC(C)(C)C(=O)/C=C/c1ccc2ccccc2n1
7. CCOC(=O)/C=C/c1ccc([N+](=O)[O-])o1

[2, -56, 3, 1, 14, -62, 21]

Batch request: growth inhibition per item, same order as input.
1. Cc1ccc(N=NC(C(=O)c2ccccc2)C(=O)c2ccccc2)cc1
2. O=C(CC(=O)c1ccccc1)CC1(O)CCCCC1

1. 14
2. 4
